Tested on: MDA-MB-435
Assay: NCI tumour cell line growth inhibition, 48 h
Property Measured: TGI (µM)
Express your answer in µM, writing the number without its unit.

# annotated cases, reported TGI shown
Request the reported TGI associated with `COc1ccc(-c2cc(-c3ccc(Cl)cc3)nc(SCCCCCCC(=O)NO)n2)cc1`
11

Sample `CC(C)(C)C(=O)CC(=O)C(F)(F)C(F)(F)C(F)(F)F.[Ag]` — what was its TGI?
33.5

More entries:
Which TGI value is on record for `CN[C@H]1CC[C@]23C[C@]24CC[C@]2(C)[C@@H]([C@H](C)N(C)C)CC[C@@]2(C)[C@@H]4CC[C@H]3C1(C)C` ?
29.8
